- TEST PROTOCOL: biological half-life for sleep-wake behaviour in rats
- CONDITION SUMMARY: rat, in vivo
Assign half-life to each entry below.
Provide only the numeric value, understood in h.

Record summary for NCc1ccccc1Sc1ccccc1 [2-(phenylthio)benzenemethanamine, reference compound] : reported half-life = 0.5

Record summary for CN(C)Cc1ccccc1Oc1ccc(Cl)cc1.O=C(O)/C=C\C(=O)O : reported half-life = 1

---

Assign half-life to each entry below.
- TEST PROTOCOL: biological half-life for sleep-wake behaviour in rats
- CONDITION SUMMARY: rat, in vivo; biological half-life, sleep-wake behaviour in rats; read-out: half-life (converted)
- Procedure: The biological half-lives of the phenoxyphenyl derivatives were determined for the sleep-wake behaviour in rats and compared with the half-lives of the prior art compounds.
Provide only the numeric value, understood in h.

Record summary for Cl.NCc1ccccc1Oc1ccc(Cl)c(Cl)c1 [Example 2] : reported half-life = 2.5

Record summary for Clc1ccc(Oc2ccccc2C2=NCCN2)cc1.O=C(O)/C=C\C(=O)O [Example 5] : reported half-life = 3
